In this section, each of the molecules is paired with its reported EC50.
# Test system: MCF7
# PROTOCOL_DETAILS: Viability of MCF7 cells by MTS assay
# Assay type: functional, cell-based
# RUN_PARAMETERS: Homo sapiens
ENDPOINT_NAME: EC50 (µM)

# STRUCTURE_SMILES, ENDPOINT_NAME, MEASUREMENT
data = [
    ("CC(=O)OCCCn1c(Sc2nc3cccc(Cl)c3s2)nc2c(N)ncnc21", "EC50", 0.2),
    ("CCn1c(Sc2nc3cccc(Cl)c3s2)nc2c(N)ncnc21", "EC50", 0.8),
    ("CC(C)NCCCn1c(Sc2nc3cccc(Cl)c3s2)nc2c(N)ncnc21", "EC50", 0.5),
    ("Nc1ncnc2c1nc(Sc1nc3cccc(Cl)c3s1)n2CCO", "EC50", 0.7),
    ("CCCCn1c(Sc2nc3cc(Cl)ccc3s2)nc2c(N)ncnc21", "EC50", 20),
    ("CCCCCn1c(Sc2nc3cccc(Cl)c3s2)nc2c(N)ncnc21", "EC50", 6),
    ("CC(=O)OCCCCn1c(Sc2nc3cccc(Cl)c3s2)nc2c(N)ncnc21", "EC50", 0.24),
    ("Nc1ncnc2c1nc(Sc1nc3cccc(Cl)c3s1)n2CCN1CCOCC1", "EC50", 0.3),
    ("CCCCn1c(Sc2nc3cncc(Cl)c3s2)nc2c(N)ncnc21", "EC50", 1),
    ("Nc1ncnc2c1nc(Sc1nc3cccc(Cl)c3s1)n2CCNC1CC1", "EC50", 0.3),
    ("CC(=O)OCCn1c(Sc2nc3cccc(Cl)c3s2)nc2c(N)ncnc21", "EC50", 0.3),
    ("CCCCn1c(Sc2nc3cccc(OCC)c3s2)nc2c(N)ncnc21", "EC50", 16),
    ("CCCCn1c(Sc2nc3ccccc3s2)nc2c(N)ncnc21", "EC50", 10),
    ("Nc1ncnc2c1nc(Sc1nc3cccc(Cl)c3s1)n2CCCO", "EC50", 0.25),
    ("CC(C)(C)NCCn1c(Sc2nc3cccc(Cl)c3s2)nc2c(N)ncnc21", "EC50", 0.3),
    ("CCCCn1c(Sc2nc3ccc(Cl)cc3s2)nc2c(N)ncnc21", "EC50", 20),
    ("CCCCn1c(Sc2nc3cccc(Br)c3s2)nc2c(N)ncnc21", "EC50", 2),
    ("CCCn1c(Sc2nc3cccc(Cl)c3s2)nc2c(N)ncnc21", "EC50", 0.85),
    ("CCOP(=O)(CCn1c(Sc2nc3cncc(Cl)c3s2)nc2c(N)ncnc21)OCC", "EC50", 0.25),
    ("CCOP(=O)(CCn1c(Sc2nc3cncc(Br)c3s2)nc2c(N)ncnc21)OCC", "EC50", 0.1),
    ("CCCCn1c(Sc2nc3cccc(OC)c3s2)nc2c(N)ncnc21", "EC50", 0.23),
    ("CCCCn1c(Sc2nc3cccc(C)c3s2)nc2c(N)ncnc21", "EC50", 1.3),
    ("CCCCn1c(Sc2nc3c(Cl)cccc3s2)nc2c(N)ncnc21", "EC50", 20),
    ("N#CCCCCn1c(Sc2nc3cccc(Cl)c3s2)nc2c(N)ncnc21", "EC50", 0.3),
    ("Nc1ncnc2c1nc(Sc1nc3cccc(Cl)c3s1)n2CCCCO", "EC50", 0.2),
    ("CCCCn1c(Sc2nc3cncc(Br)c3s2)nc2c(N)ncnc21", "EC50", 4),
    ("CCCCn1c(Sc2nc3cccc(Cl)c3s2)nc2c(N)ncnc21", "EC50", 0.25),
    ("CC(C)(C)CNCCn1c(Sc2nc3cccc(Cl)c3s2)nc2c(N)ncnc21", "EC50", 0.03),
    ("CC(C)(C)NCCCn1c(Sc2nc3cccc(Cl)c3s2)nc2c(N)ncnc21", "EC50", 0.2),
    ("CCCCn1c(Sc2nc3ccc(Cl)c(Cl)c3s2)nc2c(N)ncnc21", "EC50", 20),
    ("CC(=O)OCCCn1c(Sc2nc3cncc(Cl)c3s2)nc2c(N)ncnc21", "EC50", 1),
    ("CCCCn1c(Sc2nc3cccc(F)c3s2)nc2c(N)ncnc21", "EC50", 1),
]
